A collection of compounds and their measured TC50 (2d)
Test system: Hep-2 cells
testName: Toxicity studies (XTT), Hep-2 cells
Assay type: cell-based
conditionSet: Table 2, Examples 75 to 82 and 125 to 184, 2d

Query :: # TC50 (2d) lookup, item O=C(NC1N=C(c2ccccc2)c2ccccc2NC1=O)c1cnccn1 (stereo not drawn)
Result :: > 100 µM

---

Tested on: RSV
testName: XTT assay, RSV-infected Vero cells
Format: cell-based, Respiratory Syncytial Virus (RSV)
conditionSet: human respiratory syncytial virus, Vero, 144 h, read-out: XTT IC50 (uM), Table 2, Examples 83 to 124; Vero cells infected with RSV, m.o.i.≈0.2, 6 days at 33° C.
molecules and their reported IC50
The answer is to be given in µM; state only the numeric part.

Example entries and their recorded answers appear below.
COc1ccc(C(=O)NC2N=C(c3ccccc3)c3ccccc3NC2=O)cc1[N+](=O)[O-] (centres unmarked) | 0.8
CS(=O)(=O)c1ccc(C(=O)NC2N=C(c3ccccc3)c3ccccc3NC2=O)c(Cl)c1 (centres unmarked) | 1.5

Query :: Please state recorded IC50 (tested on RSV) of O=C(Nc1cccc(Cl)c1Cl)NC1N=C(c2ccccc2)c2ccccc2NC1=O (centres unmarked)
Result :: 2

Query :: Same thing, different molecule: O=C(Nc1ccc(Br)cc1C(F)(F)F)NC1N=C(c2ccccc2)c2ccccc2NC1=O (centres unmarked)
Result :: 6

Query :: Next molecule: COc1ccc([N+](=O)[O-])c(C(=O)NC2N=C(c3ccccc3)c3ccccc3NC2=O)c1 (centres unmarked)
Result :: 1.5

Query :: How about this molecule: O=C(NCc1ccc(Br)cc1)NC1N=C(c2ccccc2)c2ccccc2NC1=O (centres unmarked)
Result :: 2

Query :: Same again, this time with O=C(Nc1ccc(OC(F)(F)F)cc1)NC1N=C(c2ccccc2)c2ccccc2NC1=O (centres unmarked)
Result :: 2

---

Entries and their measured TC50 (6d) follow.
Tested on: Vero cells
testName: Simultaneous toxicity investigation (XTT), Vero cells
Format: cell-based
Design: unit not given here
conditionSet: Table 2, Examples 83 to 124, 6d

# count of solved cases: 3
COc1ccc(CNC(=O)NC2N=C(c3ccccc3)c3ccccc3NC2=O)cc1 (centres unmarked) | >100
Cc1cccc(C)c1NC(=O)NC1N=C(c2ccccc2)c2ccccc2NC1=O (centres unmarked) | 60
CSc1ccccc1NC(=O)NC1N=C(c2ccccc2)c2ccccc2NC1=O (centres unmarked) | 100

Query :: Entry O=C(NC1N=C(c2ccccc2)c2ccccc2NC1=O)OCc1ccccc1 (centres unmarked) : reported TC50 (6d) = ?
Result :: 60

Query :: Another: COc1ccc(C(=O)NC2N=C(c3ccc(C(F)(F)F)cc3)c3ccccc3NC2=O)cc1 (centres unmarked)
Result :: 30

Query :: What would you report for COc1ccccc1C(=O)NC1N=C(c2ccccc2)c2ccc(C)cc2NC1=O (centres unmarked) ?
Result :: >100

Query :: Please do the same for O=C(Nc1ccc(C(F)(F)F)cc1)NC1N=C(c2ccccc2)c2ccccc2NC1=O (centres unmarked) as well.
Result :: 50

Query :: For O=C(Nc1ccc(Br)cc1C(F)(F)F)NC1N=C(c2ccccc2)c2ccccc2NC1=O (centres unmarked) then?
Result :: 100

Query :: Further, for O=C(Nc1ccc([N+](=O)[O-])cc1)NC1N=C(c2ccccc2)c2ccccc2NC1=O (centres unmarked) ?
Result :: 20

Query :: // next record COc1cccc(C2=NC(NC(=O)c3ccccc3OC)C(=O)Nc3ccccc32)c1 (centres unmarked)
Result :: 100
